System: Human gingival fibroblasts
protocol summary: Biocompatibility (cytotoxicity) test, Calcein-AM cell survival
Type: cell-based
protocol conditions: 10^−4 M concentration, 24 h exposure, FIG. 1
value type: cytotoxicity (cell survival)

In [3]: df
Out[3]:
                                   molecule                assay_system                  result
0  C=C(C)C(=O)OCC(COC(=O)C(=C)C)OC(=O)CCCCCCCCC[N+]12CCN(CC1)CC2.[Br-] [Formula 4]  Human gingival fibroblasts     little cytotoxicity
1  C=C(C)C(=O)OCC(COC(=O)C(=C)C)OC(=O)CCCCCCCCCCCCCCC[N+]12CCN(CC1)CC2.[Br-] [Formula 5]  Human gingival fibroblasts  significant cell death
2  C=C(C)C(=O)OCCCCCCCCCCCCCCCC[N+]12CCN(CC1)CC2.[Br-] [Formula 11]  Human gingival fibroblasts     little cytotoxicity
3  C=C(C)C(=O)OCC(COC(=O)C(=C)C)OC(=O)CCCCCCCCCCCCCCC[N+](C)(C)Cc1ccccc1 [Formula 6]  Human gingival fibroblasts  significant cell death
